Cited source for all entries: ChEMBL document CHEMBL2034946

test: Terminal elimination half life in cynomolgus monkey at 10 mg/kg, po; format: ADME, organism-based, Macaca fascicularis; set-up: dose 10 mg/kg, route oral; conditions: in vivo, read-out: beta t1/2 (converted)

COMPOUND: CC1CN(CC(=O)N[C@H]2C3CC4CC2C[C@](C(N)=O)(C4)C3)S(=O)(=O)N(c2c(Cl)cc(Cl)cc2Cl)C1 (mixture of isomers)
UNIT_TAG: h
half-life: 3.4

----------
biological target: 11-beta-hydroxysteroid dehydrogenase 1 (Homo sapiens, UniProt P28845); experiment: Inhibition of human 11beta-HSD1 expressed in CHO-K1 cells using cortisone as substrate after 3 hrs by HTRF assay; format: cell-based; settings: read-out: IC50
Sequence (P28845 whole entry): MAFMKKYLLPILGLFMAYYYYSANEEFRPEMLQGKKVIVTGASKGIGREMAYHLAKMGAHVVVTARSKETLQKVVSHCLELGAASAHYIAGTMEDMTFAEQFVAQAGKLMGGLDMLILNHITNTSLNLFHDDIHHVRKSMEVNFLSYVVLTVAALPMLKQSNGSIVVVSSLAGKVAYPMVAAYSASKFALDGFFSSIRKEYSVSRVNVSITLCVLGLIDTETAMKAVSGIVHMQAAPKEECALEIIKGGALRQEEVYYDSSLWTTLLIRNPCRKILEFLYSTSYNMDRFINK
pIC50: −log10 of the molar value.

MOLECULE: CC1CN(CC(=O)N[C@H]2C3CC4CC2C[C@](C(N)=O)(C4)C3)S(=O)(=O)N(c2c(Cl)cc(Cl)cc2Cl)C1 (mixture of isomers)
pIC50: 9.00
//
MOLECULE: NC(=O)[C@]12CC3CC(C1)[C@@H](NC(=O)CN1CCCN(c4cccc(F)c4)S1(=O)=O)C(C3)C2
pIC50: 7.30
//
MOLECULE: O=C(CN1CCCN(CCc2ccccc2)S1(=O)=O)NC1C2CC3CC(C2)CC1C3 (stereo unspecified)
pIC50: 5.78
//
MOLECULE: NC(=O)[C@]12CC3CC(C1)[C@@H](NC(=O)CN1CC4(CC4)CN(c4c(Cl)cc(Cl)cc4Cl)S1(=O)=O)C(C3)C2
pIC50: 8.30
//
MOLECULE: NC(=O)[C@]12CC3CC(C1)[C@@H](NC(=O)CN1CCCN(c4c(Cl)cc(Cl)cc4Cl)S1(=O)=O)C(C3)C2
pIC50: 9.00
//
MOLECULE: CC1CCN(c2c(Cl)cc(Cl)cc2Cl)S(=O)(=O)N1CC(=O)N[C@H]1C2CC3CC1C[C@](C(N)=O)(C3)C2 (mixture of isomers)
pIC50: 9.00
//
MOLECULE: NC(=O)[C@]12CC3CC(C1)[C@@H](NC(=O)CN1CCCCN(c4c(Cl)cc(Cl)cc4Cl)S1(=O)=O)C(C3)C2
pIC50: 9.00
//
MOLECULE: NC(=O)[C@]12CC3CC(C1)[C@@H](NC(=O)CN1CCCN(c4ccc(F)cc4)S1(=O)=O)C(C3)C2
pIC50: 3.45
//
MOLECULE: CN(CC(=O)N[C@H]1C2CC3CC1C[C@](C(N)=O)(C3)C2)S(=O)(=O)N(C)c1c(Cl)cc(Cl)cc1Cl
pIC50: 9.00
//
MOLECULE: NC(=O)[C@]12CC3CC(C1)[C@@H](NC(=O)CN1CCCN(c4c(F)cc(F)cc4F)S1(=O)=O)C(C3)C2
pIC50: 7.70
//
MOLECULE: NC(=O)[C@]12CC3CC(C1)[C@@H](NC(=O)CN1CCN(c4c(Cl)cc(Cl)cc4Cl)S1(=O)=O)C(C3)C2
pIC50: 6.73
//
MOLECULE: CC1(C)CN(CC(=O)N[C@H]2C3CC4CC2C[C@](C(N)=O)(C4)C3)S(=O)(=O)N(c2c(Cl)cc(Cl)cc2Cl)C1
pIC50: 8.30
//
MOLECULE: NC(=O)[C@]12CC3CC(C1)[C@@H](NC(=O)CN1CCCN(c4ccccc4F)S1(=O)=O)C(C3)C2
pIC50: 7.85
//
MOLECULE: O=C(CN1CCCN(c2ccccc2)S1(=O)=O)NC12CC3CC(CC(C3)C1)C2
pIC50: 5.47
//
MOLECULE: C=C1CN(CC(=O)N[C@H]2C3CC4CC2C[C@](C(N)=O)(C4)C3)S(=O)(=O)N(c2c(Cl)cc(Cl)cc2Cl)C1
pIC50: 7.85
//
MOLECULE: NC(=O)[C@]12CC3CC(C1)[C@@H](NC(=O)CN1CCCN(c4ccccc4)S1(=O)=O)C(C3)C2
pIC50: 7.77

----------
assay: AUC in cynomolgus monkey at 10 mg/kg, po; format: ADME, organism-based, Macaca fascicularis; design: dose 10 mg/kg, route oral; conditions: plasma

MOLECULE: CC1CN(CC(=O)N[C@H]2C3CC4CC2C[C@](C(N)=O)(C4)C3)S(=O)(=O)N(c2c(Cl)cc(Cl)cc2Cl)C1 (mixture of isomers)
AUC [ng·h/mL]: 35600

----------
target: 11-beta-hydroxysteroid dehydrogenase 1 (Mus musculus); test: Inhibition of mouse 11beta-HSD1 expressed in CHO-K1 cells using cortisone as substrate after 3 hrs by HTRF assay
MEASURED_PROPERTY: IC50 (nM)

LINE_NOTATION: CN(CC(=O)N[C@H]1C2CC3CC1C[C@](C(N)=O)(C3)C2)S(=O)(=O)N(C)c1c(Cl)cc(Cl)cc1Cl
VALUE_REPORTED: 2

LINE_NOTATION: NC(=O)[C@]12CC3CC(C1)[C@@H](NC(=O)CN1CCCN(c4cccc(F)c4)S1(=O)=O)C(C3)C2
VALUE_REPORTED: 140

LINE_NOTATION: NC(=O)[C@]12CC3CC(C1)[C@@H](NC(=O)CN1CCCCN(c4c(Cl)cc(Cl)cc4Cl)S1(=O)=O)C(C3)C2
VALUE_REPORTED: 1

LINE_NOTATION: NC(=O)[C@]12CC3CC(C1)[C@@H](NC(=O)CN1CCCN(c4ccccc4F)S1(=O)=O)C(C3)C2
VALUE_REPORTED: 170

----------
Recorded remaining at 0.5 h values for a group of compounds are listed next.
assay: Metabolic stability in human liver microsomes assessed as compound remaining after 30 mins; assay type: ADME, Microsome; conditions: read-out: Stability
MEASURED_PROPERTY: remaining at 0.5 h

COMPOUND: NC(=O)[C@]12CC3CC(C1)[C@@H](NC(=O)CN1CCCCN(c4c(Cl)cc(Cl)cc4Cl)S1(=O)=O)C(C3)C2
VALUE_REPORTED: 40%

COMPOUND: NC(=O)[C@]12CC3CC(C1)[C@@H](NC(=O)CN1CCCN(c4c(Cl)cc(Cl)cc4Cl)S1(=O)=O)C(C3)C2
VALUE_REPORTED: 61%

COMPOUND: CN(CC(=O)N[C@H]1C2CC3CC1C[C@](C(N)=O)(C3)C2)S(=O)(=O)N(C)c1c(Cl)cc(Cl)cc1Cl
VALUE_REPORTED: 21%

COMPOUND: CC1CCN(c2c(Cl)cc(Cl)cc2Cl)S(=O)(=O)N1CC(=O)N[C@H]1C2CC3CC1C[C@](C(N)=O)(C3)C2 (mixture of isomers)
VALUE_REPORTED: 94%

COMPOUND: CC1CN(CC(=O)N[C@H]2C3CC4CC2C[C@](C(N)=O)(C4)C3)S(=O)(=O)N(c2c(Cl)cc(Cl)cc2Cl)C1 (mixture of isomers)
VALUE_REPORTED: 93%

----------
experiment: Aqueous solubility of the compound; assay type: physicochemical; settings: buffer
MEASURED_PROPERTY: solubility (µM)

MOLECULE: CC1CN(CC(=O)N[C@H]2C3CC4CC2C[C@](C(N)=O)(C4)C3)S(=O)(=O)N(c2c(Cl)cc(Cl)cc2Cl)C1 (mixture of isomers)
MEASURED_PROPERTY: solubility
VALUE_REPORTED: 361

----------
test: Oral bioavailability in Sprague-Dawley rat at 10 mg/kg; assay type: ADME, organism-based; conditions: in vivo

COMPOUND: CC1CN(CC(=O)N[C@H]2C3CC4CC2C[C@](C(N)=O)(C4)C3)S(=O)(=O)N(c2c(Cl)cc(Cl)cc2Cl)C1 (mixture of isomers)
bioavailability (%): 68.8

----------
target: 11-beta-hydroxysteroid dehydrogenase 1 (Mus musculus, UniProt P50172); experiment: Inhibition of mouse 11beta-HSD1 expressed in CHO-K1 cells using cortisone as substrate after 3 hrs by HTRF assay
Sequence (P50172 whole entry): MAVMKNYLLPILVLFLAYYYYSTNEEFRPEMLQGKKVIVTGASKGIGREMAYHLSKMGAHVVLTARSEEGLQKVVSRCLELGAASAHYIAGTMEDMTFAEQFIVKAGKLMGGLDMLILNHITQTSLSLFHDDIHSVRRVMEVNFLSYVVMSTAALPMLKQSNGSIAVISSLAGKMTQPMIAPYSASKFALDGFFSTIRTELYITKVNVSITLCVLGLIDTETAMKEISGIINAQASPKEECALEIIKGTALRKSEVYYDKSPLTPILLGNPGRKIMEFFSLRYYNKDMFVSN
Values of IC50 strictly less than 20 nM map to rule met, and values of at least 20 nM map to rule not met.

COMPOUND: NC(=O)[C@]12CC3CC(C1)[C@@H](NC(=O)CN1CCN(c4c(Cl)cc(Cl)cc4Cl)S1(=O)=O)C(C3)C2
TEST_SYSTEM: 11-beta-hydroxysteroid dehydrogenase 1 (Mus musculus, UniProt P50172)
CLASS_NAME: rule not met
--
COMPOUND: NC(=O)[C@]12CC3CC(C1)[C@@H](NC(=O)CN1CCCN(c4ccc(F)cc4)S1(=O)=O)C(C3)C2
TEST_SYSTEM: 11-beta-hydroxysteroid dehydrogenase 1 (Mus musculus, UniProt P50172)
CLASS_NAME: rule not met
--
COMPOUND: NC(=O)[C@]12CC3CC(C1)[C@@H](NC(=O)CN1CCCN(c4c(F)cc(F)cc4F)S1(=O)=O)C(C3)C2
TEST_SYSTEM: 11-beta-hydroxysteroid dehydrogenase 1 (Mus musculus, UniProt P50172)
CLASS_NAME: rule not met
--
COMPOUND: CC1CCN(c2c(Cl)cc(Cl)cc2Cl)S(=O)(=O)N1CC(=O)N[C@H]1C2CC3CC1C[C@](C(N)=O)(C3)C2 (mixture of isomers)
TEST_SYSTEM: 11-beta-hydroxysteroid dehydrogenase 1 (Mus musculus, UniProt P50172)
CLASS_NAME: rule not met
--
COMPOUND: NC(=O)[C@]12CC3CC(C1)[C@@H](NC(=O)CN1CC4(CC4)CN(c4c(Cl)cc(Cl)cc4Cl)S1(=O)=O)C(C3)C2
TEST_SYSTEM: 11-beta-hydroxysteroid dehydrogenase 1 (Mus musculus, UniProt P50172)
CLASS_NAME: rule not met
--
COMPOUND: CC1CN(CC(=O)N[C@H]2C3CC4CC2C[C@](C(N)=O)(C4)C3)S(=O)(=O)N(c2c(Cl)cc(Cl)cc2Cl)C1 (mixture of isomers)
TEST_SYSTEM: 11-beta-hydroxysteroid dehydrogenase 1 (Mus musculus, UniProt P50172)
CLASS_NAME: rule met
--
COMPOUND: C=C1CN(CC(=O)N[C@H]2C3CC4CC2C[C@](C(N)=O)(C4)C3)S(=O)(=O)N(c2c(Cl)cc(Cl)cc2Cl)C1
TEST_SYSTEM: 11-beta-hydroxysteroid dehydrogenase 1 (Mus musculus, UniProt P50172)
CLASS_NAME: rule met
